Measured target: ITK (Homo sapiens (Human))
Sequence (Q08881 whole entry): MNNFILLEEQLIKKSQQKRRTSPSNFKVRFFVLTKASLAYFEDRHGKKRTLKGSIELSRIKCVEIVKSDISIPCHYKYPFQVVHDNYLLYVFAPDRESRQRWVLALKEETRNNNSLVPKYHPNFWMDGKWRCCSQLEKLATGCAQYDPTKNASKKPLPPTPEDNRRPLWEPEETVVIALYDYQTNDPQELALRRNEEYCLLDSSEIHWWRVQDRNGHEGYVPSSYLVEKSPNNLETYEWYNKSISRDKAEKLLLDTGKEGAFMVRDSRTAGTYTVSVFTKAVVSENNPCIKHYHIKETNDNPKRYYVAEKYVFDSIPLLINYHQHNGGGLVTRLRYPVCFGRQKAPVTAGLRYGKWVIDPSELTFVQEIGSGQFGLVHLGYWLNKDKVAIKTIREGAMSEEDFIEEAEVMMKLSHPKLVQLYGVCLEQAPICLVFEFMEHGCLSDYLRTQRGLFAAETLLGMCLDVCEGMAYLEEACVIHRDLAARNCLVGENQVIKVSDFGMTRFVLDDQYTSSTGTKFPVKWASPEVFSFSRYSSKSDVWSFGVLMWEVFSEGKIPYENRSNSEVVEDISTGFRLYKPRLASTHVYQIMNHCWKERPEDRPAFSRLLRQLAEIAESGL
Assign IC50 to each entry below.

Inquiry: Param item = "CC#CC(=O)N[C@@H](C)c1nc(-c2ccc(C(=O)Nc3ccccn3)c(OC)c2)c2c(N)nccn12" ; retrieve measured IC50.
Reply text: > 1000 nM

Inquiry: # query: IC50 of entry "CC#CC(=O)N(C)[C@@H](C)c1nc(-c2ccc(C(=O)Nc3ccc(C)cn3)cc2)c2c(N)nccn12"
Reply text: 254 nM

Inquiry: Sample "CC#CC(=O)N1CCC[C@H]1c1nc(-c2ccc(C(=O)Nc3cscn3)cc2)c2c(N)nccn12" — what was its IC50?
Reply text: > 1000 nM

Inquiry: Query: IC50; subject: "CC#CC(=O)N1CCC[C@H]1c1nc(-c2ccc(C(=O)Nc3cc(C(F)(F)F)ccn3)c(OC)c2)c2c(N)nccn12"
Reply text: > 1000 nM

Inquiry: Reported IC50, molecule "CC#CC(=O)N(C)[C@@H](C)c1nc(-c2ccc(C(=O)Nc3ccccn3)cc2)c2c(N)nccn12" : ____
Reply text: > 1000 nM
